tested on: AMPK-alpha2; construct: gene PRKAA2; settings: concentration: 1 μM,replicates: in singlicate; n = 1;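 also: KINOMEscan kinase panel screen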
Where %Inh equals or exceeds 7%, the correct label is Criterion met; where it does not, the label is Criterion not met.

Is %Inh at least 7%? Consider C[C@@H](Oc1cc(-n2cnc3cc(-c4ccncc4)ccc32)sc1C(N)=O)c1ccccc1Cl
Criterion met

Please check the record FC(F)(F)c1cc(Br)cc(Nc2nccc(-c3cnn4ncccc34)n2)c1 and state if its %Inh is at or above 7%.
Criterion met

Say whether CCCC(=O)Nc1n[nH]c2ncccc12 shows %Inh of 7% or more.
Criterion not met

Answer whether %Inh of CN1CCN(CCCNc2nccc(-c3c(-c4ccc(F)cc4)nn4cc(C(N)=O)ccc34)n2)CC1 is greater than or equal to 7%.
Criterion met

Please tell me: is the molecule Cn1ccc2ncnc(Oc3ccc(NC(=O)Nc4cc(C(C)(C)C)on4)c(Cl)c3)c21 at or over 7% in terms of %Inh?
Criterion met

Decide: is the reported value of %Inh for Cc1ccc(Nc2ccnc(Nc3ccc4c(c3)CS(=O)(=O)C4)n2)cc1O.Cl equal to or greater than 7%?
Criterion met

Reported %Inh reaches at least 7% for O=C(Nc1ccc(Oc2ccc3nc(NC(=O)C4CC4)cn3n2)c(F)c1)c1cccn(-c2ccccc2)c1=O ?
Criterion not met

Given CN(c1ccc2c(c1)nc(NCc1ccc(F)cc1)n2C)c1ccnc(Nc2ccc(CS(C)(=O)=O)cc2)n1.Cl , state whether its %Inh is at least 7%.
Criterion not met

Check the entry O=C(NCC1CC1)c1ccc(-c2cc(C(=O)NC3CC3)ccc2F)cc1 : does %Inh equal or exceed 7%?
Criterion not met

Does the reported %Inh for CCn1c(-c2nonc2N)nc2cncc(CNC3CCNCC3)c21.Cl fall at or above the 7% mark?
Criterion not met

Reported %Inh reaches at least 7% for Cn1cc(-c2cccc3c(N)c(C(N)=O)nnc23)cn1 ?
Criterion met

Tell me whether %Inh is at least 7% here: CC(C(=O)NC1CCN(c2ccnc(Nc3ccc(F)cc3)n2)C1)c1ccc(Cl)cc1 (stereo not drawn)
Criterion not met

Hi team, for COc1cccc(C2=C(Nc3cccc(Cl)c3)C(=O)NC2=O)c1 , is the recorded %Inh at or above 7%?
Criterion not met

Please tell me: is the molecule Cc1ccc2c(-c3ccnc(Nc4ccc(C(F)(F)F)cc4)n3)cnn2n1 at or over 7% in terms of %Inh?
Criterion met

Decide: is the reported value of %Inh for CC(C)c1nc(-c2cccc(NS(=O)(=O)c3ccccc3)c2)c(-c2ccnc(Nc3ccc4c(c3)CN(C)CC4)n2)s1 equal to or greater than 7%?
Criterion met

Has C[C@@H]1CCN(C(=O)N2CCCC2)C[C@@H]1N(C)c1ncnc2[nH]ccc12 a recorded %Inh greater than or equal to 7%?
Criterion met

Dear colleague, could you confirm whether COC(=O)c1cccc(NC(=O)NC2CCN(c3ccnc(Nc4cc(OC)c(OC)c(OC)c4)n3)C2)c1 (stereo not drawn) has %Inh at or above 7%?
Criterion met

Record Cc1nnc(-c2ccc3occ(-c4ccc(S(C)=O)cc4)c3n2)o1 (stereo not drawn) ; criterion: %Inh no lower than 7%. Met?
Criterion not met

# check: %Inh of NC(=O)Nc1sc(-c2ccc(F)cc2)cc1C(N)=O is greater than or equal to 7%
Criterion met

Is %Inh for Cc1n[nH]c2cc(Nc3ccnc(Nc4cccc(CN5CCOCC5)c4)n3)ccc12 at or above 7%?
Criterion not met

Check if %Inh >= 7% (inclusive). Item: Cc1ccn2nc(-c3ccc(F)cc3)c(-c3ccncc3)c2c1.Cl
Criterion not met

Kindly determine if %Inh recorded for CC(=O)Nc1ccc(-c2cc3ncnc(SCC(=O)O)c3s2)cc1 is above or exactly 7%.
Criterion not met

Tell me whether %Inh is at least 7% here: Cc1cccc(-c2nc(Nc3ccncc3)c3sccc3n2)n1
Criterion met

Test whether the molecule CS(=O)c1ccc(-c2coc3ccc(-c4n[nH]c(=O)o4)cc23)cc1 (stereo not drawn) records %Inh of 7% or higher.
Criterion not met

Could you tell me if the measured %Inh of COc1cccc(CNC(=O)NC2CCN(c3ccnc(Nc4cc(OC)c(OC)c(OC)c4)n3)C2)c1 (stereo not drawn) reaches 7% or more?
Criterion not met

Can Cn1ccc2ncnc(Oc3ccc(NC(=O)Nc4cncc(C(F)(F)F)c4)c(Cl)c3)c21 be said to have %Inh at or above 7%?
Criterion not met

Decide: is the reported value of %Inh for Cn1ccc2ncnc(Oc3ccc(NC(=O)Nc4cccc(C(F)(F)F)c4)c(Cl)c3)c21 equal to or greater than 7%?
Criterion not met

Assess whether reported %Inh for O=C(Nc1cccc(Oc2ccc3nccn3n2)c1)Nc1cccc(C(F)(F)F)c1 sits at 7% or higher.
Criterion not met

Does the reported %Inh for COc1cccc(OC)c1C(=O)Nc1cccc(-c2nn3ccccc3c2-c2ccnc(Nc3cccc(F)c3)n2)c1 fall at or above the 7% mark?
Criterion not met

Does %Inh meet or surpass 7% for Cl.c1ccc(Oc2ccc(Nc3ccnc4cc(-c5ccc(CN6CCNCC6)o5)ccc34)cc2)nc1 ?
Criterion not met

Assess whether reported %Inh for CCNCC(Cc1ccccc1)NC(=O)c1cc(Br)c(-c2ccnc3[nH]ccc23)s1.Cl.Cl (stereo not drawn) sits at 7% or higher.
Criterion met

Hello, I need to know if COc1cc2ncn(-c3cc(OCC4CCCCC4)c(C(N)=O)s3)c2cc1OC has measured %Inh not below 7%. Thanks!
Criterion met

Kindly determine if %Inh recorded for C[C@@H]1CNc2c(sc3ccc4nc(-c5ccc(O)cc5)ccc4c23)C(=O)N1 is above or exactly 7%.
Criterion not met

Exam item: decide whether the reported %Inh for Cn1ccc2ncnc(Oc3ccc(NC(=O)Nc4cnn(C(C)(C)C)c4)c(Cl)c3)c21 is at least 7%.
Criterion met

Given OCCn1cc(-c2cnc3nnn(Cc4ccc5ncccc5c4)c3n2)cn1 , state whether its %Inh is at least 7%.
Criterion not met
